These data points were gathered from patent US8354403B2.

Item-by-item account of EC50
molecular target: human β3 adrenergic receptor (Homo sapiens, UniProt P13945); construct: expressed in transfected cells; host or cells: Chinese hamster ovary (CHO) cells, stably transfected; assay: Beta-3 agonist in vitro functional assay: cAMP production (LANCE TR-FRET) in CHO cells stably transfected with the cloned β3 receptor; assay type: cell-based; conditions: Table 12; human β3 functional activity given as ranges; read-out: Human β3 agonist functional activity
Sequence (P13945 whole entry): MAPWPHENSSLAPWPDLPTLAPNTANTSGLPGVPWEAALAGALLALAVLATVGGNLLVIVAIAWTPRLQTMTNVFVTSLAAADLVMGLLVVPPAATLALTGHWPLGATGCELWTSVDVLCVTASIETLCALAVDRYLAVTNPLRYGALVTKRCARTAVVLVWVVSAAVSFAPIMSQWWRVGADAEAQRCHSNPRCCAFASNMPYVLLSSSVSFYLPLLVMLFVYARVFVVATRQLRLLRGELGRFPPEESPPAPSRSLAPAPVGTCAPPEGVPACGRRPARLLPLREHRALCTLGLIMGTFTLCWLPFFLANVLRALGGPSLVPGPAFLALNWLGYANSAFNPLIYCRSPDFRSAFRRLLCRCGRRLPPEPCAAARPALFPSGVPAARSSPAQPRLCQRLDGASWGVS

Examples with answers:
I looked up O=C(c1ccc(CC2CCC(C(O)c3ccccc3)N2)cc1)N1CCN(C2CCN(c3ccccc3)C2=O)CC1 (single isomer, unassigned) [Example 606] and its EC50 for human β3 adrenergic receptor (Homo sapiens, UniProt P13945) was 10 to 99.9 nM

I looked up O=C(c1ccc(CC2CCC(C(O)c3ccccc3)N2)cc1)N1CCN(C2CCN(c3ccccc3)C2=O)CC1 (single isomer, unassigned) [Example 605] and its EC50 for human β3 adrenergic receptor (Homo sapiens, UniProt P13945) was 1 to 9.9 nM

I looked up O=C(c1ccc(CC2CCC(C(O)c3ccccc3)N2)cc1)N1CCN(C2CCc3cccnc32)CC1 (single isomer, unassigned) [Example 597] and its EC50 for human β3 adrenergic receptor (Homo sapiens, UniProt P13945) was 1 to 9.9 nM

---
I looked up O=C(c1ccc(CC2CCC(C(O)c3ccccc3)N2)cc1)N1CCN(C2CCN(C3CC3)C2=O)CC1 (single isomer, unassigned) [Example 607] and its EC50 for human β3 adrenergic receptor (Homo sapiens, UniProt P13945) was 100 to 999 nM
